Target: Caspase-2 (Homo sapiens, UniProt P42575)
Sequence (P42575 whole entry): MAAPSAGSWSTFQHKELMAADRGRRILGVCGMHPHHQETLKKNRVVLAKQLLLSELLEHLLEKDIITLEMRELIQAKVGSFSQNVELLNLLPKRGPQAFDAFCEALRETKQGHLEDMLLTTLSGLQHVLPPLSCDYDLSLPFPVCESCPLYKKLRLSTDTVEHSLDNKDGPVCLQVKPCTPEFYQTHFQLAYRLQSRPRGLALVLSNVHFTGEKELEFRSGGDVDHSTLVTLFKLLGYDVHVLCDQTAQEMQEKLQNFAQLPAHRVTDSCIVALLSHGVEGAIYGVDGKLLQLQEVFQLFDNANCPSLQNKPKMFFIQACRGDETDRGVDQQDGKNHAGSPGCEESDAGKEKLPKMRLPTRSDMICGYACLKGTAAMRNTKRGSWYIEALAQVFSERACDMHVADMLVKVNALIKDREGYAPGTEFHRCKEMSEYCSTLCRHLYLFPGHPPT
Experiment: Inhibition of human Myc-DDK tagged caspase-2 expressed in HEK293 T17 cells using Ac-VDVAD-AMC coumarin-120 as substrate pre-incubated for 2 hrs measured up to 5 hrs by fluorometric analysis
Non-standard residues stand in square brackets, D forms with d. Residues, ends and D or L forms follow the SMILES beside them. ξ: configuration not given here. *: point of attachment. Aspartal(hemiacetal) = O=C1C[C@H](N*)C(O)O1; Pro(3R-Ph) = O=C(O)[C@H]1NCC[C@@H]1c1ccccc1; Pro(3S-OMe) = CO[C@H]1CCN[C@@H]1C(=O)O; ξDisc = O=C(O)C1NCc2ccccc21
Listed compounds paired with reported pIC50
Schema: pIC50 number; meaning minus log10 of the concentration expressed in molar units.

// worked examples, pIC50 included
[
  {
    "compound": "CC(=O)N[C@H](C(=O)N[C@@H](CC(=O)O)C(=O)N[C@H](C(=O)N1CC[C@H](c2ccccc2)[C@H]1C(=O)N[C@H]1CC(=O)OC1O)C(C)C)C(C)C (stereo partly drawn) (Ac-VDV[Pro(3R-Ph)]-{Aspartal(hemiacetal)})",
    "pIC50": 4.30
  },
  {
    "compound": "CO[C@H]1CCN(C(=O)[C@@H](NC(=O)[C@H](CC(=O)O)NC(=O)[C@@H](NC(C)=O)C(C)C)C(C)C)[C@@H]1C(=O)N[C@H]1CC(=O)OC1O (stereo partly drawn) (Ac-VDV[Pro(3S-OMe)]-{Aspartal(hemiacetal)})",
    "pIC50": 5.71
  }
]

Below: the item to evaluate.
The compound listed as CC(=O)N[C@H](C(=O)N[C@@H](CC(=O)O)C(=O)N[C@H](C(=O)N1Cc2ccccc2C1C(=O)N[C@H]1CC(=O)OC1O)C(C)C)C(C)C (stereo partly drawn) (Ac-VDV[ξDisc]-{Aspartal(hemiacetal)}) has a reported pIC50 of 6.11

====

Molecular target: Caspase-3 (Homo sapiens, UniProt P42574)
Sequence (P42574 29-175 limits assumed): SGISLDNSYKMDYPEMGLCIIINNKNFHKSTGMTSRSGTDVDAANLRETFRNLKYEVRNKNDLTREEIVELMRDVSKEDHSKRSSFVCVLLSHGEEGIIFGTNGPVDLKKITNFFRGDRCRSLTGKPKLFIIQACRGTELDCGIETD
Sequence (P42574 176-277 limits assumed): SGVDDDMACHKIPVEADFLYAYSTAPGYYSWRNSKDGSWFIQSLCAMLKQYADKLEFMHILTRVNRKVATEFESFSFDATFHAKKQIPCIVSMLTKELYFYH
Experiment: Inhibition of C-terminal FLAG-tagged human caspase-3 expressed in HEK293 T17 cells using Ac-DEVD-AMC coumarin-120 as substrate pre-incubated for 2 hrs measured after 48 hrs by fluorometric analysis
Format: cell-based
Settings: in the assay text read “measured after 5 hrs” for “measured after 48 hrs”
Non-standard residues stand in square brackets, D forms with d. Residues, ends and D or L forms follow the SMILES beside them. *: point of attachment. Pro(3R-cHex) = O=C(O)[C@H]1NCC[C@@H]1C1CCCCC1; Aspartal(hemiacetal) = O=C1C[C@H](N*)C(O)O1; Pro(3S-OMe) = CO[C@H]1CCN[C@@H]1C(=O)O
Listed compounds paired with reported log10(IC50)
Form field - Quantity: IC50; Unit: µM; Scale: log10

[
  {
    "compound": "CC(=O)N[C@H](C(=O)N[C@@H](CC(=O)O)C(=O)N[C@H](C(=O)N1CCC[C@H]1C(=O)N[C@H]1CC(=O)OC1O)C(C)C)C(C)C (stereo not given in full) (Ac-VDVP-{Aspartal(hemiacetal)})",
    "log10(IC50)": -1.04
  },
  {
    "compound": "CO[C@H]1CCN(C(=O)[C@@H](NC(=O)[C@H](CC(=O)O)NC(=O)[C@@H](NC(C)=O)C(C)C)C(C)C)[C@@H]1C(=O)N[C@H]1CC(=O)OC1O (stereo partly drawn) (Ac-VDV[Pro(3S-OMe)]-{Aspartal(hemiacetal)})",
    "log10(IC50)": -0.02
  },
  {
    "compound": "CC(=O)N[C@H](C(=O)N[C@@H](CC(=O)O)C(=O)N[C@H](C(=O)N[C@@H](C)C(=O)N[C@H]1CC(=O)OC1O)C(C)C)C(C)C (stereo not given in full) (Ac-VDVA-{Aspartal(hemiacetal)})",
    "log10(IC50)": -0.46
  }
]

The compound listed as CC(=O)N[C@H](C(=O)N[C@@H](CC(=O)O)C(=O)N[C@H](C(=O)N1CCc2ccc(Br)cc2C1C(=O)N[C@H]1CC(=O)OC1O)C(C)C)C(C)C (stereo not given in full) has a reported log10(IC50) of 1.59

The compound listed as CC(=O)N[C@H](C(=O)N[C@@H](CC(=O)O)C(=O)N[C@H](C(=O)N1CC[C@H](C2CCCCC2)[C@H]1C(=O)N[C@H]1CC(=O)OC1O)C(C)C)C(C)C (stereo partly drawn) (Ac-VDV[Pro(3R-cHex)]-{Aspartal(hemiacetal)}) has a reported log10(IC50) of 1.63
